Tested on: 171881-019-R-J1-PDC tumor spheroids, viability
protocol.text: Anticancer human tumor 171881-019-R-J1-PDC patient-derived invasive breast carcinoma cell line growth inhibition [GQUAD]
run.conditions: second compound 1 µM; first compound 1 µM; hits give low values; spheroids with HUVEC and MSC
Output class 1 for records whose viability, T/C is lower than 10%, class 0 for records at or above 10%.

# compound, label.value
records = [
    ("COc1cc(C2c3cc4c(cc3C(OC3OC5COC(C)OC5C(O)C3O)C3COC(=O)C23)OCO4)cc(OC)c1O (stereo not given) + CN(C)c1ccc(Nc2c3ccc(NC(=O)CCN4CCCC4)cc3nc3cc(NC(=O)CCN4CCCC4)ccc23)cc1", "class 0"),
    ("Nc1ccn(C2OC(CO)C(O)C2(F)F)c(=O)n1 (stereo not given) + Cc1[nH]c2ccc(F)cc2c1-c1nc2c3cccnc3c3ncccc3c2[nH]1", "class 0"),
    ("COc1ccc([C@@H](O)c2cc(-c3ncnc4cc(N5CCOCC5)ccc34)c(F)cc2Cl)nn1 + CN(C)c1ccc(Nc2c3ccc(NC(=O)CCN4CCCC4)cc3nc3cc(NC(=O)CCN4CCCC4)ccc23)cc1", "class 1"),
    ("COc1ncnc(C2CC2)c1-c1ncc2cnn(Cc3ccc(-c4nc(C(F)(F)F)cn4C(C)C)cc3)c2n1 + CN(C)c1ccc(Nc2c3ccc(NC(=O)CCN4CCCC4)cc3nc3cc(NC(=O)CCN4CCCC4)ccc23)cc1", "class 1"),
    ("CC(=O)O[C@H]1C(=O)[C@@]2(C)[C@H]([C@H](OC(=O)c3ccccc3)[C@]3(O)C[C@H](OC(=O)[C@H](O)[C@@H](NC(=O)c4ccccc4)c4ccccc4)C(C)=C1C3(C)C)[C@]1(OC(C)=O)CO[C@@H]1C[C@@H]2O + CN(C)c1ccc(Nc2c3ccc(NC(=O)CCN4CCCC4)cc3nc3cc(NC(=O)CCN4CCCC4)ccc23)cc1", "class 1"),
    ("CC1COCCN1c1cc(C2(S(C)(=N)=O)CC2)nc(-c2ccnc3[nH]ccc23)n1 (stereo not given) + CN(C)c1ccc(Nc2c3ccc(NC(=O)CCN4CCCC4)cc3nc3cc(NC(=O)CCN4CCCC4)ccc23)cc1", "class 0"),
    ("C=CCn1c(=O)c2cnc(Nc3ccc(N4CCN(C)CC4)cc3)nc2n1-c1cccc(C(C)(C)O)n1 + Cc1cnc(CNC(=O)c2c(=O)c3ccc(N4CCCN(C)CC4)nc3n3c2sc2ccccc23)cn1", "class 0"),
    ("COc1cccc2c1C(=O)c1c(O)c3c(c(O)c1C2=O)CC(O)(C(=O)CO)CC3OC1CC(N)C(O)C(C)O1 (stereo not given) + CN(C)c1ccc(Nc2c3ccc(NC(=O)CCN4CCCC4)cc3nc3cc(NC(=O)CCN4CCCC4)ccc23)cc1", "class 1"),
    ("COc1cc(C2c3cc4c(cc3C(OC3OC5COC(C)OC5C(O)C3O)C3COC(=O)C23)OCO4)cc(OC)c1O (stereo not given) + Cc1cnc(CNC(=O)c2c(=O)c3ccc(N4CCCN(C)CC4)nc3n3c2sc2ccccc23)cn1", "class 0"),
    ("COc1ccc([C@@H](O)c2cc(-c3ncnc4cc(N5CCOCC5)ccc34)c(F)cc2Cl)nn1 + Cc1cnc(CNC(=O)c2c(=O)c3ccc(N4CCCN(C)CC4)nc3n3c2sc2ccccc23)cn1", "class 0"),
    ("Nc1ccn(C2OC(CO)C(O)C2(F)F)c(=O)n1 (stereo not given) + Cc1cnc(CNC(=O)c2c(=O)c3ccc(N4CCCN(C)CC4)nc3n3c2sc2ccccc23)cn1", "class 0"),
    ("COc1cccc2c1C(=O)c1c(O)c3c(c(O)c1C2=O)CC(O)(C(=O)CO)CC3OC1CC(N)C(O)C(C)O1 (stereo not given) + Cc1cnc(CNC(=O)c2c(=O)c3ccc(N4CCCN(C)CC4)nc3n3c2sc2ccccc23)cn1", "class 0"),
    ("O=C(NO)c1cnc(N2CCN(S(=O)(=O)c3ccc4ccccc4c3)CC2)nc1 + Cc1[nH]c2ccc(F)cc2c1-c1nc2c3cccnc3c3ncccc3c2[nH]1", "class 1"),
    ("COc1ncnc(C2CC2)c1-c1ncc2cnn(Cc3ccc(-c4nc(C(F)(F)F)cn4C(C)C)cc3)c2n1 + Cc1[nH]c2ccc(F)cc2c1-c1nc2c3cccnc3c3ncccc3c2[nH]1", "class 0"),
    ("CC1COCCN1c1cc(-c2ccnn2C)c2ccnc(-c3ccn[nH]3)c2n1 (stereo not given) + CN(C)c1ccc(Nc2c3ccc(NC(=O)CCN4CCCC4)cc3nc3cc(NC(=O)CCN4CCCC4)ccc23)cc1", "class 1"),
    ("O=C(c1cc(Cc2n[nH]c(=O)c3ccccc23)ccc1F)N1CCN(C(=O)C2CC2)CC1 + Cc1[nH]c2ccc(F)cc2c1-c1nc2c3cccnc3c3ncccc3c2[nH]1", "class 0"),
    ("Nc1ccn(C2OC(CO)C(O)C2(F)F)c(=O)n1 (stereo not given) + CN(C)c1ccc(Nc2c3ccc(NC(=O)CCN4CCCC4)cc3nc3cc(NC(=O)CCN4CCCC4)ccc23)cc1", "class 0"),
    ("C=CCn1c(=O)c2cnc(Nc3ccc(N4CCN(C)CC4)cc3)nc2n1-c1cccc(C(C)(C)O)n1 + CN(C)c1ccc(Nc2c3ccc(NC(=O)CCN4CCCC4)cc3nc3cc(NC(=O)CCN4CCCC4)ccc23)cc1", "class 1"),
    ("COc1cccc2c1C(=O)c1c(O)c3c(c(O)c1C2=O)CC(O)(C(=O)CO)CC3OC1CC(N)C(O)C(C)O1 (stereo not given) + Cc1[nH]c2ccc(F)cc2c1-c1nc2c3cccnc3c3ncccc3c2[nH]1", "class 0"),
    ("Cc1cccc(N(C)C(=O)C2C(O)CCN2c2nc(C)cc(C(F)(F)F)c2C#N)c1 (stereo not given) + Cc1cnc(CNC(=O)c2c(=O)c3ccc(N4CCCN(C)CC4)nc3n3c2sc2ccccc23)cn1", "class 0"),
]

###

Test system: 171881-019-R-J1-PDC tumor spheroids, viability
protocol.text: Anticancer human tumor 171881-019-R-J1-PDC cell line growth inhibition [GQUAD];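 also: spheroids exposed to compounds for 7 days; 100% = DMSO vehicle control viability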
run.conditions: second compound 0.316 µM; first compound 0.0316 µM; hits give low values; spheroids with HUVEC and MSC
recorded.endpoint: viability, T/C (%)

# compound, reported
measured = [
    ("Cc1cccc(N(C)C(=O)C2C(O)CCN2c2nc(C)cc(C(F)(F)F)c2C#N)c1 (stereo not given) + CN(C)c1ccc(Nc2c3ccc(NC(=O)CCN4CCCC4)cc3nc3cc(NC(=O)CCN4CCCC4)ccc23)cc1", 88.3),
    ("C=CCn1c(=O)c2cnc(Nc3ccc(N4CCN(C)CC4)cc3)nc2n1-c1cccc(C(C)(C)O)n1 + CN(C)c1ccc(Nc2c3ccc(NC(=O)CCN4CCCC4)cc3nc3cc(NC(=O)CCN4CCCC4)ccc23)cc1", 39.8),
    ("O=C(NO)c1cnc(N2CCN(S(=O)(=O)c3ccc4ccccc4c3)CC2)nc1 + Cc1[nH]c2ccc(F)cc2c1-c1nc2c3cccnc3c3ncccc3c2[nH]1", 73.3),
    ("O=C(c1cc(Cc2n[nH]c(=O)c3ccccc23)ccc1F)N1CCN(C(=O)C2CC2)CC1 + Cc1[nH]c2ccc(F)cc2c1-c1nc2c3cccnc3c3ncccc3c2[nH]1", 91.7),
    ("COc1ncnc(C2CC2)c1-c1ncc2cnn(Cc3ccc(-c4nc(C(F)(F)F)cn4C(C)C)cc3)c2n1 + Cc1[nH]c2ccc(F)cc2c1-c1nc2c3cccnc3c3ncccc3c2[nH]1", 71.4),
]

###

System: 171881-019-R-J1-PDC tumor spheroids, viability
protocol.text: Anticancer human tumor 171881-019-R-J1-PDC cell line growth inhibition [GQUAD]; active = viability on the fitted dose curve at most 10% of control; inactive = the rest;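 also: spheroids exposed to compounds for 7 days; 100% = DMSO vehicle control viability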
run.conditions: second compound 1 µM; first compound 1 µM; spheroids with HUVEC and MSC
Outcomes: active, inactive

# compound, label.value
measured = [
    ("CCCS(=O)(=O)Nc1ccc(F)c(C(=O)c2c[nH]c3ncc(-c4ccc(Cl)cc4)cc23)c1F + CN(C)c1ccc(Nc2c3ccc(NC(=O)CCN4CCCC4)cc3nc3cc(NC(=O)CCN4CCCC4)ccc23)cc1", "active"),
    ("CC(C)(O)C1CCC(Nc2ccc3ncc(-c4cccc(C(F)(F)F)c4)n3n2)CC1 (stereo not given) + Cc1[nH]c2ccc(F)cc2c1-c1nc2c3cccnc3c3ncccc3c2[nH]1", "inactive"),
    ("O=c1[nH]cc(F)c(=O)[nH]1 + Cc1cnc(CNC(=O)c2c(=O)c3ccc(N4CCCN(C)CC4)nc3n3c2sc2ccccc23)cn1", "inactive"),
    ("CC1COCCN1c1cc(-c2ccnn2C)c2ccnc(-c3ccn[nH]3)c2n1 (stereo not given) + Cc1cnc(CNC(=O)c2c(=O)c3ccc(N4CCCN(C)CC4)nc3n3c2sc2ccccc23)cn1", "inactive"),
    ("CC(C)(O)C1CCC(Nc2ccc3ncc(-c4cccc(C(F)(F)F)c4)n3n2)CC1 (stereo not given) + CN(C)c1ccc(Nc2c3ccc(NC(=O)CCN4CCCC4)cc3nc3cc(NC(=O)CCN4CCCC4)ccc23)cc1", "active"),
    ("CC1COCCN1c1cc(C2(O)CC3CCC(C2)O3)c2cnn(-c3ccn[nH]3)c2n1 (stereo not given) + Cc1cnc(CNC(=O)c2c(=O)c3ccc(N4CCCN(C)CC4)nc3n3c2sc2ccccc23)cn1", "active"),
    ("Cc1cccc(N(C)C(=O)C2C(O)CCN2c2nc(C)cc(C(F)(F)F)c2C#N)c1 (stereo not given) + CN(C)c1ccc(Nc2c3ccc(NC(=O)CCN4CCCC4)cc3nc3cc(NC(=O)CCN4CCCC4)ccc23)cc1", "inactive"),
    ("O=C(NO)c1cnc(N2CCN(S(=O)(=O)c3ccc4ccccc4c3)CC2)nc1 + Cc1cnc(CNC(=O)c2c(=O)c3ccc(N4CCCN(C)CC4)nc3n3c2sc2ccccc23)cn1", "active"),
    ("CC(=O)O[C@H]1C(=O)[C@@]2(C)[C@H]([C@H](OC(=O)c3ccccc3)[C@]3(O)C[C@H](OC(=O)[C@H](O)[C@@H](NC(=O)c4ccccc4)c4ccccc4)C(C)=C1C3(C)C)[C@]1(OC(C)=O)CO[C@@H]1C[C@@H]2O + Cc1cnc(CNC(=O)c2c(=O)c3ccc(N4CCCN(C)CC4)nc3n3c2sc2ccccc23)cn1", "inactive"),
    ("CCCS(=O)(=O)Nc1ccc(F)c(C(=O)c2c[nH]c3ncc(-c4ccc(Cl)cc4)cc23)c1F + Cc1cnc(CNC(=O)c2c(=O)c3ccc(N4CCCN(C)CC4)nc3n3c2sc2ccccc23)cn1", "inactive"),
]
